Test: GSK_TB: Lipophilicity, log D of the compound at pH 7.4 by ChromlogD analysis
Type: physicochemical
Details: buffer
Binary call on Lipophilicity with cut-off 5: strictly below means true, and equality or higher means false.

1) Fc1cccc(Oc2cc(C3CCCNC3)nc(-c3ccncc3)n2)c1 (stereo unspecified)    true
2) FC(F)(F)Oc1ccc(-c2cc3ccncc3cc2OC2CCNCC2)cc1    true
3) COc1ccc(CN2CCN(C(=O)/C=C/c3csc(C)n3)CC2)cc1    true
4) COc1ccc(-c2nnc3sc(Cc4csc(C)n4)nn23)cc1    true
5) Cc1ccc2c(c1)c(=O)cc(C(F)(F)F)n2CCNC(=O)c1ccccn1    false
6) CCOc1cc2ccccc2cc1C(=O)NC    true
7) COc1ccc(Nc2ncccc2N)cc1    true
8) COc1ccc(CCNC(=O)C2(n3cnnn3)CCCCC2)cc1    true
9) O=C(Nc1nc(-c2ccccn2)cs1)N1CCC(Cc2ccc(F)cc2)CC1    false
10) CC(C)c1noc(N2CCC([C@H](C)Oc3cnc(-c4ccc(S(C)(=O)=O)c(F)c4)cn3)CC2)n1    false

----------
Assay: GSK_TB: AVG_CHROM_LOGP
Format: physicochemical
Lipophilicity listing for selected compounds.
QUANTITY: Lipophilicity

1) N#Cc1ncn(-c2ccc3nnc(C(F)(F)F)n3n2)n1    3.3167
2) N#Cc1cc(C(F)(F)F)c2nc(C(=O)NCc3cccs3)c(Cl)n2c1    5.4382
3) CCCC/C=C/c1cc2ccncc2cc1OC1CCNCC1    7.3475
4) FC(F)(F)Oc1ccc(-c2cc3ccncc3cc2OC2CCNCC2)cc1    6.8742
5) COc1ccc(-c2nnc3sc(Cc4csc(C)n4)nn23)cc1    4.0511
6) O=C(NCCO)c1c(O)c2ncc(Cc3ccc(F)cc3C(F)(F)F)cc2[nH]c1=O    3.9858
7) COc1ccc(Nc2nc(N[C@@H]3CCNC3)nc3cc[nH]c(=O)c23)cc1NC(=O)c1ccccc1    3.1698
8) Nc1ccccc1Nc1ccc(Cl)cc1    5.9114
9) CN(Cc1ccc(Cl)cc1)C(=O)CCc1nc2ccccc2oc1=O    6.0093
10) COC(=O)c1ccc(Oc2ccc(-c3csc(C)n3)cc2F)nn1    4.8996
11) Fc1ccc(Cc2nnc(-c3ccnc(Nc4ccc(OCCN5CCOCC5)cc4)n3)[nH]2)cc1    3.8389
12) O=C(Nc1nc(-c2ccccn2)cs1)N1CCC(Cc2ccc(F)cc2)CC1    6.3357
13) CCCCc1ccc(C(=O)Nc2nnc(S(=O)(=O)CCCC)s2)nc1    7.3965
14) FC(F)(F)c1nnc2ccc(Sc3nnc(-c4ccco4)o3)nn12    3.8715
15) Cc1ccc2c(c1)c(=O)cc(C(F)(F)F)n2CCNC(=O)c1ccccn1    6.1236
16) O=S(=O)(NCc1ccccc1)c1ccc(-c2cc3ccncc3cc2OC2CCNCC2)s1    4.4101
17) Cc1nc(Nc2cnn(Cc3ccccc3F)c2)c2nn(C)c(C)c2n1    3.4146
18) O=C(NCc1ccoc1)N1CCN(Cc2ccc3c(c2)OCO3)CC1    3.5288
19) COc1ccc(CN2CCN(C(=O)/C=C/c3csc(C)n3)CC2)cc1    4.1653
20) O=C(Nc1nc2c(s1)CCCc1cccnc1-2)c1ccccc1C(F)(F)F    5.2587
21) NC(=O)c1ccc(CN(C2CC2)S(=O)(=O)c2ccccc2F)cc1    3.79
22) NCC(c1cccs1)S(=O)(=O)c1ccccc1 (stereo not given)    2.5334
23) CCOCn1ccc(NS(=O)(=O)c2ccc(N)cc2)nc1=O    0.7057
24) Nc1ccc(C(O)CNCCc2ccccc2)cc1O (stereo not given)    1.7338
25) CC(C)N(C(=O)CNc1ccccc1Nc1ccccc1)c1ccccc1    8.1308
26) NS(=O)(=O)c1ccc(Nc2cnc3ccccc3n2)cc1    2.5171
27) N#Cc1cccc(-c2ccc(NC[C@H]3CC[C@]4(CC3)CN(c3cccnn3)C(=O)O4)nc2)c1    4.9649
28) O=C(NCc1ccco1)N1CCN(Cc2ccc(Cl)s2)CC1    4.8996
29) O=C(O)CCc1nc2ccccc2oc1=O    2.3212
30) Nc1ccc(S(=O)(=O)Nc2ccnn2-c2ccccc2)cc1    2.8435
31) CC1CC1c1ccc(CN2CCc3nc(Nc4ccccc4)sc3CC2)o1 (stereo not given)    8.1798
32) CNc1nc(SC)nnc1-c1cccc(Cl)c1Cl    4.9976
33) Clc1nnc(N2CCCC2)c2ccccc12    4.4101
34) Fc1cccc(Oc2cc(C3CCCNC3)nc(-c3ccncc3)n2)c1 (stereo not given)    5.1281
35) Cn1cc(CCNC(=O)Nc2ccc(N3CCCCC3)nc2)cn1    2.974
